Tested on: E. coli TOP10
Test: Suicide expression system (SES) growth inhibition
Assay type: cell-based
Conditions: Table 5; mixed-motif library, re-tested in the Bioscreen C
Observation Type: Growth inhibition (%)
Respond with the bare value in %.

Use the examples below as a reference point.
Substance: 288 (RRRPPRLPRPLPVRPPPRVPRPFPLRP; Synthetic antimicrobial peptide) [compound 288]
Growth inhibition (%): 96

Substance: 284 (RRRPPRLPRPLPVRPPPRFPRPVPVRP; Synthetic antimicrobial peptide) [compound 284]
Growth inhibition (%): 89

Substance: 292 (RRRPPRLPRPLPVRPPPRVPRPVPFRP; Synthetic antimicrobial peptide) [compound 292]
Growth inhibition (%): 93

Substance: 213 (RRRPPRLPRPFPFRPPPRLPRPFPIRP; Synthetic antimicrobial peptide) [compound 213]
Growth inhibition (%): 94

Substance: 207 (RRRPPRFPRPFPIRPPPRFPRPIPFRP; Synthetic antimicrobial peptide) [compound 207]
Growth inhibition (%): 93

Substance: 279 (RRRPPRLPRPLPIRPPPRVPRPLPLRP; Synthetic antimicrobial peptide) [compound 279]
Growth inhibition (%): 91

Substance: 303 (RRRPPRLPRPVPLRPPPRVPRPLPIRP; Synthetic antimicrobial peptide) [compound 303]
Growth inhibition (%): 91

Substance: 230 (RRRPPRLPRPFPLRPPPRFPRPLPLRP; Synthetic antimicrobial peptide) [compound 230]
Growth inhibition (%): 94

Substance: 272 (RRRPPRLPRPLPIRPPPRFPRPIPVRP; Synthetic antimicrobial peptide) [compound 272]
Growth inhibition (%): 91

In the following, a different substance is considered.
**Q:** What does the record list as Growth inhibition (%) for 246 (RRRPPRLPRPFPVRPPPRVPRPFPVRP; Synthetic antimicrobial peptide) [compound 246] ?
**A:** 95

The measurements presented in this section are drawn from patent US7833967B2.
